A collection of molecules and their measured IC50
- system_name: IDO1 (Homo sapiens, UniProt P14902)
- Sequence (P14902 whole entry): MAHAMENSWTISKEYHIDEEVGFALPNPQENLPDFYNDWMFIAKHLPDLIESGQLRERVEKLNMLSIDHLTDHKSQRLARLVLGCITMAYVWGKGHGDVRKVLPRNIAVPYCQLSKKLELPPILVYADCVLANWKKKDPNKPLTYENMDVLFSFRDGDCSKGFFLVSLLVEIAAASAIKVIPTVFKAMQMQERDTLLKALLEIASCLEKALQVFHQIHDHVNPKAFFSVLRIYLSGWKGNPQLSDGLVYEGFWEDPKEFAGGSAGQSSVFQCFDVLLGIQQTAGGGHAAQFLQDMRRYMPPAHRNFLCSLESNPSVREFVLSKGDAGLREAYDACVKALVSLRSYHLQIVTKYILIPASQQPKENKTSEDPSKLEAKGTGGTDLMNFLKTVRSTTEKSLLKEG
- test_method_notes: IDO1 cellular activity using HEK293 cells transfected with IDO1 expression vector
- Type: cell-based
- Parameters: host or cells: HEK293 cells, transient transfection with Lipofectamine 2000
- test_conditions: 24 h compound incubation, read-out: Inhibitory Activity (IC50)
Just the number please, in nM, no unit attached.

Consider the following illustrative entries.
So what's the measured IC50 for this one? C[C@H](C[C@H]1CC[C@H](c2ccnc3ccc(F)cc32)CC1)Nc1nc(Cl)nc2cc(Cl)ccc12 7.6

So what's the measured IC50 for this one? COc1ccc2c(N[C@H](C)C[C@H]3CC[C@H](c4ccnc5ccc(F)cc54)CC3)nc(Cl)nc2c1 19.4

So what's the measured IC50 for this one? C[C@H](C[C@H]1CC[C@H](c2ccnc3ccc(F)cc32)CC1)Nc1nc(Cl)nc2cc(Br)ccc12 19.3

Further cases:
So what's the measured IC50 for this one? C[C@H](C[C@H]1CC[C@@H](c2ccnc3ccc(F)cc32)CC1)Nc1nc2ncc(Cl)cc2s1 7.6

So what's the measured IC50 for this one? C[C@H](C[C@H]1CC[C@@H](c2ccnc3ccc(F)cc32)CC1)Nc1nc2c(F)cc(F)cc2s1 20.6

---

- system_name: IDO1 (Homo sapiens, UniProt P14902)
- test_method_notes: IDO1 cellular activity using Hela cells (IFN-gamma induced IDO expression, kynurenine absorbance at 480 nm)
- Format: cell-based
- test_conditions: IDO induced with interferon gamma 50 ng/ml, 24 h compound incubation, read-out: Inhibitory Activity (IC50)
endpoint_label: pIC50
Remember, pIC50 is on a log scale: it is -log10 of the molar concentration.

Consider the following illustrative entries.
What pIC50 appears in the records for this compound with IDO1 (Homo sapiens, UniProt P14902)? C[C@H](C[C@H]1CC[C@@H](c2ccnc3ccc(F)cc32)CC1)Nc1nc2ncccc2s1 [Example 21] 7.74

What pIC50 appears in the records for this compound with IDO1 (Homo sapiens, UniProt P14902)? CC[C@H](C[C@H]1CC[C@@H](c2ccnc3ccc(F)cc32)CC1)Nc1nc2ccc(Cl)cc2o1 [Example 27] 7.64

What pIC50 appears in the records for this compound with IDO1 (Homo sapiens, UniProt P14902)? C[C@H](C[C@H]1CC[C@@H](c2ccnc3ccc(F)cc32)CC1)Nc1nc2c(F)cccc2o1 [Example 28] 7.92

What pIC50 appears in the records for this compound with IDO1 (Homo sapiens, UniProt P14902)? C[C@H](C[C@H]1CC[C@@H](c2ccnc3ccc(F)cc32)CC1)Nc1ncnc2cc(C#N)ccc12 [Example 1] 7.80

What pIC50 appears in the records for this compound with IDO1 (Homo sapiens, UniProt P14902)? CCOc1ccc2nc(N[C@H](CC)C[C@H]3CC[C@@H](c4ccnc5ccc(F)cc54)CC3)sc2c1 [Example 20] 7.62

Further cases:
What pIC50 appears in the records for this compound with IDO1 (Homo sapiens, UniProt P14902)? C[C@H](C[C@H]1CC[C@@H](c2ccnc3ccc(F)cc32)CC1)Nc1ncnc2cc(Cl)ccc12 [Example 3] 7.85

What pIC50 appears in the records for this compound with IDO1 (Homo sapiens, UniProt P14902)? CCOc1ccc2nc(N[C@H](C)C[C@H]3CC[C@@H](c4ccnc5ccc(F)cc54)CC3)sc2c1 [Example 19] 7.85

What pIC50 appears in the records for this compound with IDO1 (Homo sapiens, UniProt P14902)? C[C@H](C[C@H]1CC[C@@H](c2ccnc3ccc(F)cc32)CC1)Nc1cc(=O)oc2cc(Br)ccc12 [Example 9] 7.74

---

- system_name: IDO1 (Homo sapiens, UniProt P14902)
- test_method_notes: IDO1 cellular activity using HEK293 cells transfected with IDO1 expression vector
- Format: cell-based
- Design: host or cells: HEK293 cells, transient transfection with Lipofectamine 2000
- test_conditions: 24 h compound incubation, read-out: Inhibitory Activity (IC50)
- Description: HEK293 cells were seeded at a density of 30000 cells/well in 100 μl of a culture medium (DMEM supplemented with 10% FBS, penicillin 100 U/ml, and streptomycin 100 μg/ml) in a tissue culture-treated 96 well plate. […] The activities were measured using a IDO1 cell-based assay kit (catalog #72031, BPS Bioscience). […] After reacting at room temperature for 10 minutes, absorbance was measured at 480 nm wavelength. […]
A collection of molecules and their measured IC50
Just the number please, in nM, no unit attached.

So what's the measured IC50 for this one? C[C@H](C[C@H]1CC[C@H](c2ccnc3ccc(F)cc32)CC1)Nc1nc(Cl)nc2cc(F)ccc12 43.6

So what's the measured IC50 for this one? C[C@H](C[C@H]1CC[C@H](c2ccnc3ccc(F)cc32)CC1)Nc1nc(Cl)nc2ccc(F)cc12 45.4

So what's the measured IC50 for this one? C[C@H](C[C@H]1CC[C@@H](c2ccnc3ccc(F)cc32)CC1)Nc1nc2cccc(F)c2o1 7.6

So what's the measured IC50 for this one? C[C@H](C[C@H]1CC[C@H](c2ccnc3ccc(F)cc32)CC1)Nc1nc(Cl)nc2c(F)cccc12 62.3

Further cases:
So what's the measured IC50 for this one? COc1cccc2c(N[C@H](C)C[C@H]3CC[C@H](c4ccnc5ccc(F)cc54)CC3)nc(Cl)nc12 260

So what's the measured IC50 for this one? C[C@H](C[C@H]1CC[C@@H](c2ccnc3ccc(F)cc32)CC1)Nc1nncc2cc(Cl)ccc12 9.7

So what's the measured IC50 for this one? C[C@H](C[C@H]1CC[C@@H](c2ccnc3ccc(F)cc32)CC1)Nc1nc(Cl)nc2ccc(Cl)cc12 406

So what's the measured IC50 for this one? C[C@H](C[C@H]1CC[C@@H](c2ccnc3ccc(F)cc32)CC1)Nc1nc2c(Cl)cccc2s1 105

So what's the measured IC50 for this one? C[C@H](C[C@H]1CC[C@H](c2ccnc3ccc(F)cc32)CC1)Nc1c(F)c(=O)oc2cc(Cl)ccc12 9.5

So what's the measured IC50 for this one? C[C@H](C[C@H]1CC[C@@H](c2ccnc3ccc(F)cc32)CC1)Nc1nc2ccc(OCCF)cc2o1 5.5

So what's the measured IC50 for this one? Cc1ccc2c(N[C@H](C)C[C@H]3CC[C@@H](c4ccnc5ccc(F)cc54)CC3)nc(Cl)nc2c1 16.1

So what's the measured IC50 for this one? C[C@H](C[C@H]1CC[C@H](c2ccnc3ccc(F)cc32)CC1)Nc1nc(Cl)nc2cc(C#N)ccc12 28.2

So what's the measured IC50 for this one? C[C@H](C[C@H]1CC[C@H](c2ccnc3ccc(F)cc32)CC1)Nc1nc(Cl)nc2c(OC(F)(F)F)cccc12 57.4

So what's the measured IC50 for this one? CCOc1ccc2nc(N[C@H](CC)C[C@H]3CC[C@@H](c4ccnc5ccc(F)cc54)CC3)sc2c1 14.3

So what's the measured IC50 for this one? COc1ccc2nc(N[C@H](C)C[C@H]3CC[C@@H](c4ccnc5ccc(F)cc54)CC3)oc2c1F 6.6

---

- system_name: IDO1 (Homo sapiens, UniProt P14902)
- test_method_notes: IDO1 cellular activity using HEK293 cells transfected with IDO1 expression vector
- Type: cell-based
- Set-up: host or cells: HEK293 cells, transient transfection with Lipofectamine 2000
- test_conditions: 24 h compound incubation, read-out: Inhibitory Activity (IC50)
class 1 if IC50 is below 20 nM. class 0 if not; exact matches included in class 0.

Regarding C[C@H](C[C@H]1CC[C@@H](c2ccnc3ccc(F)cc32)CC1)Nc1nc2cccc(Cl)c2s1 , kindly confirm whether its IC50 is beneath 20 nM. class 1

Regarding C[C@H](C[C@H]1CC[C@@H](c2ccnc3ccc(F)cc32)CC1)Nc1c(F)c(=O)oc2cc(Br)ccc12 , kindly confirm whether its IC50 is beneath 20 nM. class 1

Regarding C[C@H](C[C@H]1CC[C@@H](c2ccnc3ccc(F)cc32)CC1)Nc1nc2c(F)cccc2o1 , kindly confirm whether its IC50 is beneath 20 nM. class 1

Regarding C[C@H](C[C@H]1CC[C@@H](c2ccnc3ccc(F)cc32)CC1)Nc1nc2ccc(Cl)cc2s1 , kindly confirm whether its IC50 is beneath 20 nM. class 0

Further cases:
Regarding C[C@H](C[C@H]1CC[C@@H](c2ccnc3ccc(F)cc32)CC1)Nc1nc(Cl)nc2cc(Cl)ccc12 , kindly confirm whether its IC50 is beneath 20 nM. class 0

Regarding C[C@H](C[C@H]1CC[C@@H](c2ccnc3ccc(F)cc32)CC1)Nc1nc2ccc(Cl)cc2o1 , kindly confirm whether its IC50 is beneath 20 nM. class 1

Regarding C[C@H](C[C@H]1CC[C@H](c2ccnc3ccc(F)cc32)CC1)Nc1nc(Cl)nc2c(Cl)cccc12 , kindly confirm whether its IC50 is beneath 20 nM. class 0

meta.source: patent US20240174636A1
